System: ROCK1 (Homo sapiens, UniProt Q13464)
Construct: Catalytic Domain (amino acids 1-535); GST
Sequence (Q13464 1-535): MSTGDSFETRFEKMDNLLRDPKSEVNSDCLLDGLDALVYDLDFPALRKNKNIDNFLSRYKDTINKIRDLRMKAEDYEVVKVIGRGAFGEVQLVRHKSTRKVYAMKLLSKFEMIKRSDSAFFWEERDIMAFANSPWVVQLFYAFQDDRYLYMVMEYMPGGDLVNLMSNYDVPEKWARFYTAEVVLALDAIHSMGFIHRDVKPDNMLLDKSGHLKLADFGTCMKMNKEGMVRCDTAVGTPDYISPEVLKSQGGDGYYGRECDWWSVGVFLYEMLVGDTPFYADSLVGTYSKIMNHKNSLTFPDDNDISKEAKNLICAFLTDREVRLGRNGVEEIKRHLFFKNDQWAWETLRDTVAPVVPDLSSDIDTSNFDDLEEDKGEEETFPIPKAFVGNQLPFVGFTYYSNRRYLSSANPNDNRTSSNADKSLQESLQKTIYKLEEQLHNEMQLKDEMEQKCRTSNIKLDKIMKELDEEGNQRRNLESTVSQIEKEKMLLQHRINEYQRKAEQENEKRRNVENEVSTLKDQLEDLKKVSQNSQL
Assay comment: Kinase assay ROCK1 ([gamma-33P]ATP, S6 kinase peptide substrate)
Condition info: 20 nM recombinant human ROCK1 catalytic domain, room temperature
Provide the reported pIC50 of each item.
Give bare numbers, as −log10 of the molar value.

Check out these entries, answers already filled in.
>>> reported("NCc1ccc(Oc2ccc3c(c2)B(O)OC3)cc1 [T]")
5.09
>>> reported("N#Cc1ccc(Oc2ccc3c(c2)COB3O)nc1OC1CCCC1 [Z]")
4.74
>>> reported("NCc1cccc(Oc2ccc3c(c2)B(O)OC3)c1 [U]")
4.16

Please look at the items below and tell me pIC50 for each one, in order.
1. NCc1ccc(Oc2ccc3c(c2)COB3O)cc1 [V]
2. NCc1ccc(Oc2ccc3c(c2)B(O)OC3)c(F)c1 [W]

4.60
5.61
